Consider the following molecules and their measured log10 MIC readings.
Tested on: K. pneumoniae NVT1001 ΔramRΔompK35/36 mutant and its revertants
Assay: Etest MIC, ΔramRΔompK35/36 mutant and its revertants (Table 7)
Format: cell-based
Details: Klebsiella pneumoniae, ΔramRΔompK35/36::ompK35/36 revertant
OBSERVABLE: log10 MIC (log10 of the value in µg/mL)

| MOLECULE | QUANTITATIVE_RESULT |
| --- | --- |
| C[C@@H](O)[C@H]1C(=O)N2C(C(=O)O)=C(S[C@@H]3CN[C@H](CNS(N)(=O)=O)C3)[C@H](C)[C@H]12 [Doripenem] | -1.22 |
| CN(C)c1ccc(O)c2c1C[C@H]1C[C@H]3[C@H](N(C)C)C(O)=C(C(N)=O)C(=O)[C@@]3(O)C(O)=C1C2=O [Minocycline] | 2.11 |
| COc1c(N2C[C@@H]3CCCN[C@@H]3C2)c(F)cc2c(=O)c(C(=O)O)cn(C3CC3)c12 [Moxifloxacin, moxifloxacin] | -0.30 |
| CO/N=C(\C(=O)N[C@@H]1C(=O)N2C(C(=O)[O-])=C(C[N+]3(C)CCCC3)CS[C@H]12)c1csc(N)n1 [Cefepime] | -0.30 |
| CCn1cc(C(=O)O)c(=O)c2ccc(C)nc21 [Nalidixic acid, nalidixic acid] | 1.81 |
| CO/N=C(\C(=O)N[C@@H]1C(=O)N2C(C(=O)O)=C(COC(C)=O)CS[C@H]12)c1csc(N)n1 [Cefotaxime] | 0.00 |
| CCO/N=C(\C(=O)N[C@@H]1C(=O)N2C(C(=O)[O-])=C(Sc3nc(-c4cc[n+](C)cc4)cs3)CS[C@H]12)c1nsc(N)n1 [Ceftaroline] | 0.00 |
| CCn1cc(C(=O)O)c(=O)c2cc(F)c(N3CCNCC3)cc21 [Norfloxacin, norfloxacin] | 0.30 |
| CC1COc2c(N3CCN(C)CC3)c(F)cc3c(=O)c(C(=O)O)cn1c23 (stereo not shown) [Ofloxacin, ofloxacin] | 0.30 |
| C[C@@H](O)[C@H]1C(=O)N2C(C(=O)O)=C(SCCN=CN)C[C@H]12 [Imipenem] | -0.60 |
